Tested on: KB
Test: Cytotoxicity against human KB cells after 3 days by resazurin microplate assay
Format: functional, cell-based
Settings: Homo sapiens, KB, 72 h; read-out: IC50
compounds and their reported IC50
Please respond with the number in µM and leave the unit unwritten.

>  <line-notation>
COc1cccc2c1C(=O)c1c(O)c3c(c(O)c1C2=O)C[C@@](O)(C(=O)CO)C[C@@H]3O[C@H]1C[C@H](N)[C@H](O)[C@H](C)O1

>  <IC50, µM>
0.9

$$$$
>  <line-notation>
CC(C)(CNC(=O)c1ccc2ccccc2c1O)CC1=C(O)C(=O)c2ccccc2C1=O

>  <IC50, µM>
26.9

$$$$
>  <line-notation>
COC1=C(CC(C)(C)CNC(=O)c2ccccc2OC)C(=O)c2ccccc2C1=O

>  <IC50, µM>
33.2

$$$$
>  <line-notation>
COc1c(C(=O)NCC(C)(C)CC2=C(O)C(=O)c3ccccc3C2=O)ccc2ccccc12

>  <IC50, µM>
66.9

$$$$

Please give the documented IC50 of CC(C)(CNC(=O)c1ccccc1O)CC1=C(O)C(=O)c2ccccc2C1=O 44.9

Provide only the value of recorded IC50 for COC1=C(CC(C)(C)CNC(=O)c2cc(OC)c3ccccc3c2OC)C(=O)c2ccccc2C1=O 41.2

Identify the reported IC50 for the following entry. CC(C)(CNC(=O)c1ccc2ccccc2c1)CC1=C(O)C(=O)c2ccccc2C1=O 9

State, in one line, measured IC50 of COC1=C(CC(C)(C)CNC(=O)c2ccc3ccccc3c2)C(=O)c2ccccc2C1=O 34.1

Provide IC50 value for the following compound: COC1=C(CC(C)(C)CNC(=O)c2cc(OC)ccc2OC)C(=O)c2ccccc2C1=O 34.3
